- SYSTEM_NAME: UniProt:P51677
- Sequence (P51677 whole entry): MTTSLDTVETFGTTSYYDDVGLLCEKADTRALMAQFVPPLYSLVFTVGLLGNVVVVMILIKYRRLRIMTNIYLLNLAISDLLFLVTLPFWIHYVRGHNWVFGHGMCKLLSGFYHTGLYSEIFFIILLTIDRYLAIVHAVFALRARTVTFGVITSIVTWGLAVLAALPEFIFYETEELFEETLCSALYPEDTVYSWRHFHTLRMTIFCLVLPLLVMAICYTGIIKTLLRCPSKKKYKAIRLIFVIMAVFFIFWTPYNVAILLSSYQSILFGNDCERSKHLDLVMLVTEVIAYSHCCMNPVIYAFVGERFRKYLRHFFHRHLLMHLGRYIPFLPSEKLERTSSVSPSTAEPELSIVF
pKi: −log10 of the molar value.
Given measured pKi, output TRUE if it is greater than or equal to 6 and FALSE if not.

Clc1cc(Cl)cc(CCNCC(c2ccccc2)N2CCN(C3CCCCC3)CC2)c1 (centres undefined)	TRUE
FC(F)(F)c1ccc(C(CNCCc2cc(Cl)cc(Cl)c2)N2CCN(C3CCCCC3)CC2)cc1 (centres undefined)	TRUE
COc1ccccc1CC(=O)NCC(c1ccc(C(C)(C)C)cc1)N1CCN(c2ccccc2)CC1 (centres undefined)	FALSE
CN(C)c1ccc(C(CNCCc2ccc(C(F)(F)F)cc2)N2CCN(c3ccccc3)CC2)cc1 (centres undefined)	FALSE
CN1CCN(C(CNCCc2ccccc2)c2ccc(C(F)(F)F)cc2)CC1 (centres undefined)	FALSE

Decide: is the reported value of pKi for CC(C)(C)c1ccc(C(CNCCc2ccccc2)N2CCN(C3CCCCC3)CC2)cc1 (centres undefined) equal to or greater than 6?
TRUE

====

Catalogue of Ki readings, one per entry.
- SYSTEM_NAME: UniProt P51677
Write the numeric value and append its unit.

Example cases with answers are listed next.
CC(C)(C)c1ccc(C(CNC(=O)Nc2ccc(F)cc2)N2CCN(C3CCCCC3)CC2)cc1 (stereo not drawn)	1120 nM
COc1ccc(CCNCC(c2ccc(C(C)(C)C)cc2)N2CCN(c3ccccc3)CC2)cc1 (stereo not drawn)	768 nM

API: value(readout=Ki, system=UniProt P51677) for record O=C(NCC(c1ccc(C(F)(F)F)cc1)N1CCN(C2CCCCC2)CC1)Nc1ccc(F)cc1 (stereo not drawn)
1110 nM
